- Experiment Notes: chemical genetic growth profiling, strain panel (AID 1159580);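 note: tested at 20 µM; growth read once vehicle control cultures reached saturation at 30 °C; 1 = growth at the plate median or of vehicle wells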
- Experimental Parameters: S. cerevisiae deletion strains, growth OD, locus YOR001W, strain rrp6, stronger effect = lower value
Screen size: about 5,500 compounds; about 2,000 (36%) were called active. Inconclusive results (about 18%) are left out. The list shows a part of the results.
Property Measured: normalized growth

Solved entries:
CCCCOc1ccc(OCCCN2CCOCC2)cc1	0.8 (active)
C[CH2][Hg][S]c1ccccc1C(=O)O	0.0639 (active)
Cc1cc(=O)c2c(O)cc(O)c(C)c2o1	0.909 (inactive)
S=C=NCc1ccccc1	0.0775 (active)
O=C(O)c1ccccc1OP(=O)(O)O	0.976 (inactive)
COc1cc(O)c2c(=O)cc(C)oc2c1CC=C(C)C	0.989 (inactive)

// lookup normalized growth for COc1c2c(c(CC=C(C)C)c3oc(=O)c(-c4ccc(O)cc4)c(O)c13)OC(C)(C)C=C2 0.797 (active)

What would you report for OC(CCN1CCCCC1)(c1ccccc1)c1ccccc1 ? 0.992 (inactive)

How about this compound: CC1(C)C2CC[C@]3(C)C(C(=O)C=C4[C@H]5C[C@@](C)(C(=O)O)CC[C@]5(C)CC[C@]43C)[C@@]2(C)CC[C@@H]1O (stereo partly specified) 1.01 (inactive)

Please do the same for CC1(C)C2CC[C@]3(C)C(C(=O)C=C4[C@@H]5C[C@@](C)(C(=O)O)CC[C@]5(C)CC[C@]43C)[C@@]2(C)CC[C@@H]1O (stereo partly specified) as well. 0.886 (active)

Do the same for Cc1cc(=O)c2c(O)c(C)c(O)cc2o1 please 1.03 (inactive)

* * *

- Experiment Notes: chemical genetic growth profiling, strain panel (AID 1159580)
- Experimental Parameters: S. cerevisiae deletion strains, growth OD, locus YDR297W, strain sur2, stronger effect = lower value
Screen size: about 5,500 compounds; about 2,000 (36%) were called active. About 18% were inconclusive and are not listed. This is one part of the list.
normalized growth values by entry
I'd appreciate a reply containing only the number, no unit.

CNc1ccccc1C(=O)N1CCc2c([nH]c3ccccc23)C1=O	1
COc1ccc2c(c1)OC[C@@H](Cc1ccc(OC)c(OC)c1)[C@@H]2O	0.985
CC(C)(N=NC(C)(C)C(=N)N)C(=N)N	1.02
O=C1C[C@@H](c2ccc(O)cc2)Oc2cc(O)cc(O)c21	0.97
Cc1cc(OC(=O)N2CCCCC2)c(C(C)C)cc1[N+](C)(C)C	1.01

# next compound below
Suppose we examine the compound COc1ccc(C2CC(=O)c3ccc(OC)cc3O2)cc1 (configuration not stated) ; what normalized growth value has been reported? 0.948

* * *

- Experiment Notes: chemical genetic growth profiling, strain panel (AID 1159580)
- Experimental Parameters: S. cerevisiae deletion strains, growth OD, locus YLR330W, strain CHS5, stronger effect = lower value
In all, about 5,500 compounds went through this assay and about 2,000 (36%) were called active. About 18% were inconclusive and are not listed. Some of the results follow.
The following compounds are listed with their measured normalized growth values.

NC(N)=NOCC[C@H](N)C(=O)O	0.977 (inactive)
CCc1nc(N)nc(N)c1-c1ccc(Cl)cc1	1.01 (inactive)
O=C(O)c1cc(=O)c2ccc(Cl)cc2[nH]1	1.01 (inactive)
CC(=C(CCOP(=O)(O)O)SC(=O)c1ccccc1)N(C=O)Cc1cnc(C)nc1N	1.01 (inactive)
COc1ccc2c(c1)C1(C)CCC(=O)CC1CC2 (stereo not drawn)	0.986 (inactive)
Cc1ccc2c(c1)CC[C@H]1CC(=O)CC[C@]21C	0.991 (inactive)
CN1CCc2cc3c(cc2C1O)OCO3 (stereo not drawn)	0.991 (inactive)
CC(C)CC1C(=O)N2CCC[C@H]2C2(O)O[C@](NC(=O)C3C=C4c5cccc6[nH]c(Br)c(c56)C[C@H]4N(C)C3)(C(C)C)C(=O)N12 (stereo partly drawn)	0.975 (inactive)

What value of normalized growth has been recorded for this entry: C/C=C(/C(=C/C)c1ccc(O)cc1)c1ccc(O)cc1 0.724 (active)

What do you have for COC(=O)c1c(Cl)c(Cl)c(C(=O)OC)c(Cl)c1Cl ? 1 (inactive)

Item: CC[C@@H](CO)NCCN[C@@H](CC)CO 1.01 (inactive)

And what about the compound COc1ccc(C(=O)c2ccccc2)c(O)c1 ? 0.916 (active)

And for COC1C(O)C(O)C(O)[C@@H](O)C1O (stereo partly drawn) ? 1.01 (inactive)

Next up: CC(C)[N+](C)(CCOC(=O)C1c2ccccc2Oc2ccccc21)C(C)C 1 (inactive)

COc1cccc2c1CCC1CC(=O)CCC21C (stereo not drawn) , same question. 0.98 (inactive)

Repeat for the following compound: C[N+](C)(C)CC(=O)[O-] 0.99 (inactive)

Would you mind doing CO[C@H]1C[C@H](O[C@H]2[C@H](C)[C@@H](OC3O[C@H](C)C[C@H](N(C)C)[C@H]3O)[C@@H](C)C[C@]3(CO3)C(=O)[C@H](C)[C@@H](O)[C@@H](C)[C@@H](C)OC(=O)[C@@H]2C)O[C@@H](C)[C@@H]1O (stereo partly drawn) as well? 1.01 (inactive)

Another: CNC1(C)C2CCC(C2)C1(C)C (stereo not drawn) 0.987 (inactive)

Also C=C1CC[C@H](O)C/C1=C/C=C1\CCC[C@]2(C)C([C@H](C)/C=C/[C@H](C)C(C)C)CC[C@@H]12 (stereo partly drawn) , if possible. 0.984 (inactive)

Entry to check: O=c1ccc2ccccc2o1 1.03 (inactive)

Would you kindly repeat that for COc1cc(O)c(C(=O)c2ccccc2)cc1O ? 1.02 (inactive)

And N#Cc1c(Cl)c(Cl)c(Cl)c(C#N)c1Cl ? 0.996 (inactive)

Next record, please: Cc1c(N(C)C)c(=O)n(-c2ccccc2)n1C 0.989 (inactive)

* * *

- Experiment Notes: chemical genetic growth profiling, strain panel (AID 1159580);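 note: tested at 20 µM; growth read once vehicle control cultures reached saturation at 30 °C; 1 = growth at the plate median or of vehicle wells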
- Experimental Parameters: S. cerevisiae deletion strains, growth OD, locus YPL055C, strain LGE1, stronger effect = lower value
Hit rate of the full screen: of about 5,500 compounds, about 2,000 (36%) were called active. Not shown: some 18% with an inconclusive outcome. The list shows a part of the results.
Decide using normalized growth alone. Strictly below 1: Criterion met. Equal to or above 1: Criterion not met.

O=C(O)c1cc(=O)c2ccc(Cl)cc2[nH]1	Criterion not met
O=C(O)c1cc(=O)c2cc(Cl)ccc2[nH]1	Criterion met
CC(C)=CCc1c(O)cc2oc(C)cc(=O)c2c1O	Criterion met

Consider the compound O[C@H]1C=C2CCN3Cc4cc5c(cc4C(C23)[C@@H]1O)OCO5 (stereo partly specified) . Is its normalized growth strictly less than 1? Criterion met

Try COc1ccc(C2CC(=O)c3ccc(OC)cc3O2)cc1 (stereo unspecified) next. Criterion met

* * *

- Experiment Notes: chemical genetic growth profiling, strain panel (AID 1159580);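 note: tested at 20 µM; growth read once vehicle control cultures reached saturation at 30 °C; 1 = growth at the plate median or of vehicle wells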
- Experimental Parameters: S. cerevisiae deletion strains, growth OD, locus YDR162C, strain NBP2
The whole screen tested about 5,500 compounds, of which about 2,000 (36%) were called active. Inconclusive results (about 18%) are left out. Cut-off read from the data, not from the text of the source: active = normalized growth mostly below about 0.91 (no sharp cut-off); inconclusive = no clear call, values can overlap the other calls; inactive = mostly above about 0.92. The list shows a part of the results.
Give one outcome, nothing more. List: y for active, n for inactive

CCC1(C)CC(=O)NC1=O (stereo unspecified)	n
N=c1nc(N2CCCCC2)cc(N)n1O	n
Cc1cc(C(C)(C)CC(C)(C)C)ccc1OCCOCC[N+](C)(C)Cc1ccccc1	y

Pending compound:
Called result for C=C1CC[C@H](O)C/C1=C/C=C1\CCC[C@]2(C)C([C@H](C)/C=C/[C@H](C)C(C)C)CC[C@@H]12 (stereo partly specified) n

* * *

- Experiment Notes: chemical genetic growth profiling, strain panel (AID 1159580);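 note: tested at 20 µM; growth read once vehicle control cultures reached saturation at 30 °C; 1 = growth at the plate median or of vehicle wells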
- Experimental Parameters: S. cerevisiae deletion strains, growth OD, locus YPL078C, strain atp4, stronger effect = lower value
Among all 5,500 compounds or so, about 2,000 (36%) were called active. Another 18% or so got no clear call; they are omitted. This is one part of the list.
Property Measured: normalized growth
# output: bare number, no unit

COc1ccc2cc1Oc1ccc(cc1)C[C@H]1c3cc(c(OC)cc3CCN1C)Oc1c(OC)c(OC)cc3c1[C@H](C2)N(C)CC3	0.974
Cc1cc(OC(=O)N2CCCCC2)c(C(C)C)cc1[N+](C)(C)C	0.99
C=CC1=C(C(=O)O)N2C(=O)[C@@H](NC(=O)/C(=N/O)c3csc(N)n3)[C@H]2SC1	1.02
c1ccc(CN(CC2=NCCN2)c2ccccc2)cc1	1.04
CC(=O)OC1CC23CC24CCC(OC2OCC(O)C(O)C2O)C(C)(C)C4CCC3C2(C)CC3OC4(CC(C)C3C12C)OC(O)C1(C)OC41 (stereo unspecified)	0.963

Record request: normalized growth value, item CC[C@H]1OC(=O)C[C@@H](O)[C@H](C)[C@@H](O[C@@H]2O[C@H](C)[C@@H](O[C@H]3C[C@@](C)(O)[C@@H](O)[C@H](C)O3)[C@H](N(C)C)[C@H]2O)[C@@H](CC=O)C[C@@H](C)C(=O)/C=C/C(C)=C/[C@@H]1CO[C@@H]1O[C@H](C)[C@@H](O)[C@@H](OC)[C@H]1OC 0.974

Can you check COc1ccc2cc1Oc1ccc(cc1)C[C@H]1c3c(cc4c(c3Oc3cc5c(cc3OC)CCN(C)[C@@H]5C2)OCO4)CCN1C next? 1.03
